Taken from the supplement of paper PMC7877785.

- Assay protocol: self-splicing fitness, log relative to wild type (ln ratio); higher = more splicing; Tetrahymena group I intron in knt gene, E. coli kanamycin selection, DiMSum; sequences stand for … in CUCUCU…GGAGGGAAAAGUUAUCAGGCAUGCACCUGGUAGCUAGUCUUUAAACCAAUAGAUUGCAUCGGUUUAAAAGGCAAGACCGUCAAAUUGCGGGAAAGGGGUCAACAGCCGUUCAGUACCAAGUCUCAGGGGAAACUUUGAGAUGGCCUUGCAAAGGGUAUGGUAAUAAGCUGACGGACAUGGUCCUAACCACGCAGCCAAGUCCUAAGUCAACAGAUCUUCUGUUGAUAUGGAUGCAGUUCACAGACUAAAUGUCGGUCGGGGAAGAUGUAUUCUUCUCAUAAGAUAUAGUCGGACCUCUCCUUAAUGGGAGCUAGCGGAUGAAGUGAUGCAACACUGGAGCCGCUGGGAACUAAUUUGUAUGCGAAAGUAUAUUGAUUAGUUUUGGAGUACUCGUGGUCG;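 further: selection with 25 µg/mL kanamycin versus none on LB agar overnight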
- Conditions: 37 °C
Recorded metric: self-splicing fitness (ln)
Could you keep your reply to the number by itself?

In [3]: df
Out[3]:
             seq_string             recorded_metric  endpoint_result
0  GCAAAGCAAUAUUACGCUGA  self-splicing fitness (ln)            -2.04

Need self-splicing fitness (ln), item UGAUAGCAAUAUUACGCCGU
-2.01

Item CGGUAGCAAUAUUACGUCGU has what recorded self-splicing fitness (ln)?
-2.02
